The reported measurements were obtained from ChEMBL document CHEMBL2029246.

Listed below: EC50 values for each entry.
# target_system: Sphingosine 1-phosphate receptor 1 (Homo sapiens)
# Sequence (P21453 whole entry): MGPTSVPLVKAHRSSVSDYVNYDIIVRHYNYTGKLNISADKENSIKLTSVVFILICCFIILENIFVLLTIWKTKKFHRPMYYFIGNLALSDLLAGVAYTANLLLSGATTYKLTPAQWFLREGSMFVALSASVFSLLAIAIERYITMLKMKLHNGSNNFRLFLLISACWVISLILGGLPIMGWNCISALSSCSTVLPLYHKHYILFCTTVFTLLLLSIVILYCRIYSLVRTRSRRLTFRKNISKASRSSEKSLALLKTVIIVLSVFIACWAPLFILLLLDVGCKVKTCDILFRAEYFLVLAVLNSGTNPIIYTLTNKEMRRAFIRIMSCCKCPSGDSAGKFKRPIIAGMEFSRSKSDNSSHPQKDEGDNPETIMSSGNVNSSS
# test_method_notes: Agonist activity at SIP1 receptor by tango assay

Here's what some known entries look like.
[[record]]
structure = "CC(C)Oc1ccc(-c2nc3cc(CC(=O)O)cnc3o2)cc1Cl"
reading = "> 3160 nM"

[[record]]
structure = "CC(C)Oc1ccc(-c2nc3cc(CCCC(=O)O)cnc3o2)cc1Cl"
reading = "1000 nM"

[[record]]
structure = "O=C(O)C1CCN(CCc2ccc3oc(-c4ccc(-c5ccccc5)c(C(F)(F)F)c4)nc3c2)CC1"
reading = "0.158 nM"

[[record]]
structure = "O=C(O)CCCCCc1cnc2oc(-c3cc(-c4ccccc4)c(C(F)(F)F)s3)nc2c1"
reading = "398 nM"

[[record]]
structure = "CC(C)Oc1ccc(-c2nc(-c3cccc4c3c(Cl)cn4CCC(=O)O)no2)cc1Cl"
reading = "0.0251 nM"

[[record]]
structure = "O=C(O)CCNCCc1ccc2oc(-c3ccc(-c4ccccc4)c(C(F)(F)F)c3)nc2c1"
reading = "0.0316 nM"

[[record]]
structure = "CC(C)Oc1ccc(-c2nc3cc(CCCCCC(=O)O)cnc3o2)cc1Cl"
reading = "158 nM"

[[record]]
structure = "CC(C)Oc1ccc(-c2nc3cc(CCCCCC(=O)O)cnc3o2)cc1C(F)(F)F"
reading = "20 nM"


Look at this molecule and give its reported EC50. O=C(O)C1CN(CCCc2ccc3oc(-c4ccc(-c5ccccc5)c(C(F)(F)F)c4)nc3c2)C1
0.1 nM

Quick one: EC50 of O=C(O)C1CN(c2ccc3oc(-c4ccc(-c5ccccc5)c(C(F)(F)F)c4)nc3c2)C1 ?
10 nM
